molecular target: ΔF508-CFTR (Homo sapiens, UniProt P13569, DEL508-508); construct: host or cells: CFBE41o-, doxycycline-inducible; test: CFTR cell surface levels using HRP-tagged ΔF508-CFTR expressing CFBE cells, in the presence of a co-corrector; format: cell-based; conditions: HRP-tagged ΔF508-CFTR expressing CFBE cells, in the presence of 3 μM co-corrector
Sequence (P13569 with tags, fused parts or gaps DEL508-508): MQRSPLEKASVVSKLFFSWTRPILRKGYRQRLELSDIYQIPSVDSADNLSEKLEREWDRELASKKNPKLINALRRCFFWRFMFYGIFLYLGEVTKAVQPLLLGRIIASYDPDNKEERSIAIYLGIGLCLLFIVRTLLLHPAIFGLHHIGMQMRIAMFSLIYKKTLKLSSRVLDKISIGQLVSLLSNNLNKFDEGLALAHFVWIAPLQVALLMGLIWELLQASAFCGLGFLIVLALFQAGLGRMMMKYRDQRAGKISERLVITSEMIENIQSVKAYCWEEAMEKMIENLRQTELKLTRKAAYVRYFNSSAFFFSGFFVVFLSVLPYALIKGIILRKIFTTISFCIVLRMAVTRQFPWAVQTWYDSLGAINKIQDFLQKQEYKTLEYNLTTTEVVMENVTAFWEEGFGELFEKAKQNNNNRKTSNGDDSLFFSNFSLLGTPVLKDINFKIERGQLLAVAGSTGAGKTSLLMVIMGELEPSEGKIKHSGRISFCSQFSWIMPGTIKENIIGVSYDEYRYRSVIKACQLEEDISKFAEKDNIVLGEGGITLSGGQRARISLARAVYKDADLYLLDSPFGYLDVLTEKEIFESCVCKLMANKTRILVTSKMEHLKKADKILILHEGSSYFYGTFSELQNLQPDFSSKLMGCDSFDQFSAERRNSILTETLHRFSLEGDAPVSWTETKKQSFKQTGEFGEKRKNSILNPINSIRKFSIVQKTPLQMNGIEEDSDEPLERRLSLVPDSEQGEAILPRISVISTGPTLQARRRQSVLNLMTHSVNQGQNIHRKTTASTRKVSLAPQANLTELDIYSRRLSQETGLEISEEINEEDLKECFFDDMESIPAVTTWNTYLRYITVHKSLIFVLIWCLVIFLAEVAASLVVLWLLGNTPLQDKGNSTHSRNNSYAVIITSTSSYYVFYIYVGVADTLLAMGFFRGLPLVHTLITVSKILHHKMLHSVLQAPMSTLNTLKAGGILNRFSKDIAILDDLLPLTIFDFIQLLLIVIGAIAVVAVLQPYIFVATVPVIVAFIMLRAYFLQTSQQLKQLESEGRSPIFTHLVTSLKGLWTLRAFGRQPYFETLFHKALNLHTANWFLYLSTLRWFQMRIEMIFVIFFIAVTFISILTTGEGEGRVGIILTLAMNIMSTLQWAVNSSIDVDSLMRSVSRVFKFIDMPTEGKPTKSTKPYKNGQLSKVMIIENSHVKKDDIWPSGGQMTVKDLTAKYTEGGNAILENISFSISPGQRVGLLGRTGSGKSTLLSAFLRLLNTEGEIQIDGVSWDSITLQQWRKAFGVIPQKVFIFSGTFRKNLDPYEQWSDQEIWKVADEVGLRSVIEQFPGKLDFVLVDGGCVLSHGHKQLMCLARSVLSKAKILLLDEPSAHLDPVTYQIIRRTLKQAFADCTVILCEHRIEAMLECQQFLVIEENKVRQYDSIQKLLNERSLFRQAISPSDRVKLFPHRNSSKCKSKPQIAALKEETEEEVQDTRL
// reported % Activation per item
Put down the number, then write its unit next to it.

Cc1nn(-c2cccc(C(F)(F)F)c2)c2nc(C(=O)O)cc(-c3ccc(N4CCOCC4)cc3)c12: 310.95%
CCN(CC)C1CCN(c2cc(C(=O)O)nc3c2c(C(C)C)nn3-c2ccc(F)cc2)CC1: 309.9%
Cc1nn(C2CCCCC2)c2nc(C(=O)O)cc(-c3ccc(N(C)C)nc3)c12: 247.8%
CC(C)c1nn(-c2ccc(F)cc2)c2nc(C(=O)O)cc(N3CCN(CC4CCCO4)CC3)c12 (centres unmarked): 321%
O=C(O)c1cc(OCCC2CC(F)(F)C2)c2c(C3CCC3)nn(-c3ccccc3)c2n1: 266.3%
CC(C)c1nn(-c2ccc(F)cc2F)c2nc(C(=O)O)cc(-c3ccc(N4CCC(C#N)CC4)cc3)c12: 335.63%
O=C(O)c1cc(OCCC2OCCCO2)c2c(C3CCC3)nn(-c3ccccc3)c2n1: 261.9%

Challenge: I am curious: what % Activation value has been reported for N#CC1CCN(c2ccc(-c3cc(C(=O)O)nc4c3c(OC3COC3)nn4-c3ccccc3)cn2)CC1 ?
Response given: 279%

###

biological target: ΔF508-CFTR (Homo sapiens, UniProt P13569, DEL508-508); construct: host or cells: CFBE41o-, doxycycline-inducible; assay: CFTR cell surface levels using HRP-tagged ΔF508-CFTR expressing CFBE cells, in the presence of a co-corrector; assay type: cell-based; conditions: HRP-tagged ΔF508-CFTR expressing CFBE cells, in the presence of 3 μM co-corrector
In plain terms, low % Activation, meaning strictly below 400%, gives Satisfied, and everything else gives Not satisfied.

Below are worked cases with known answers.
COCCN(C)c1ccc(-c2cc(C(=O)O)nc3c2c(C(C)C)nn3-c2cccc(N3CCC3)c2)cn1 [compound 239]: Not satisfied
CO[C@@H]1CCN(CC2CCN(c3cc(C(=O)O)nc4c3c(C3CCC3)nn4-c3ccccc3)CC2)C1 [compound 803]: Not satisfied
CC(=O)N1CCC(Oc2cc(C(=O)O)nc3c2c(C2CCC2)nn3-c2ccccc2)CC1 [compound 612]: Satisfied
COCC1CCN(c2cc(C(=O)O)nc3c2c(C(C)C)nn3C2CCCCC2)CC1 [compound 431]: Not satisfied
CCOC(=O)N1CCN(c2cc(C(=O)O)nc3c2c(C2CCC2)nn3-c2ccccc2)CC1 [compound 539]: Not satisfied

Challenge: API: query returns whether the compound falls strictly under 400% in % Activation. Query: COCCN(CCOC)c1ccc(-c2cc(C(=O)O)nc3c2c(C(C)C)nn3C2CCCCC2)cn1 [compound 275]
Response given: Satisfied

Challenge: Next compound: CN1CCC2(CC1)CCN(c1cc(C(=O)O)nc3c1c(C1CCC1)nn3-c1ccc(F)cc1)CC2 [compound 928]
Response given: Satisfied

Challenge: Next compound: CC(=O)N1CC[C@@H]2CN(c3cc(C(=O)O)nc4c3c(C3CCC3)nn4-c3ccccc3)CC[C@@H]21 (single isomer, unassigned) [compound 587]
Response given: Satisfied

Challenge: Next compound: Cc1cc(-n2nc(C3CCC3)c3c(N4CCC(N5CCOCC5)CC4)cc(C(=O)O)nc32)ccc1F [compound 824]
Response given: Not satisfied

Challenge: Next compound: Cc1nn(-c2ccccc2)c2nc(C(=O)O)cc(OCCC3CC(F)(F)C3)c12 [compound 347]
Response given: Satisfied

Challenge: Next compound: CCCCN1CCCN(c2cc(C(=O)O)nc3c2c(C2CCC2)nn3-c2ccccc2)CC1 [compound 710]
Response given: Satisfied

Challenge: Next compound: CC(C)c1nn(-c2ccc(F)cc2)c2nc(C(=O)O)cc(N3CCC(CCN4CCN(C)CC4)CC3)c12 [compound 785]
Response given: Not satisfied

Challenge: Next compound: Cc1nn(-c2ccccc2)c2nc(C(=O)O)cc(O[C@@H]3CCN(C)C3)c12 [compound 338]
Response given: Satisfied

Challenge: Next compound: CC(C)c1nn(-c2ccc(F)cc2)c2nc(C(=O)O)cc(N3CC(C4CN(C)CCO4)C3)c12 (stereo not drawn) [compound 740]
Response given: Satisfied
